Please go through the items and note down their Percent of receptors in high-affinity state.
MEASURED ON: D(2) dopamine receptor (Bos taurus)
METHOD: High percent binding affinity for different states of the Dopamine receptor D2 in bovine anterior pituitary membranes, using radioligand [3H]spiroperidol
One number for each entry, in %.

Observe how each entry below is paired with its result.
{"COMPOUND STRUCTURE": "CCCN1C[C@H](CSC)C[C@@H]2c3cc(O)c(O)cc3CC[C@H]21", "UNIT DESCRIPTOR": "%", "READING": 33}
{"COMPOUND STRUCTURE": "CCCN1C[C@H](CSC)C[C@@H]2c3cc(O)ccc3CC[C@H]21", "UNIT DESCRIPTOR": "%", "READING": 21}
{"COMPOUND STRUCTURE": "CCCN1C[C@H](CC#N)C[C@@H]2c3cc(O)ccc3CC[C@H]21", "UNIT DESCRIPTOR": "%", "READING": 30}
{"COMPOUND STRUCTURE": "CCCN1C[C@H](CC#N)C[C@@H]2c3cc(O)c(O)cc3CC[C@H]21", "UNIT DESCRIPTOR": "%", "READING": 44}

# input for lookup
Fill in Percent of receptors in high-affinity state for record CCCN1C[C@H](C)C[C@@H]2c3cc(O)ccc3CC[C@H]21
13
